- Experiment notes: Quantitative High-Throughput drug screen in 47 multiple myeloma cell lines against the NCATS MIPE library collection: MM1S_ATCC cell viability assay (AID 1918980); further: nearly all actives have a fitted effect of over 45% in size
- Condition details: MM1S myeloma viability, CellTiter-Glo ATP luminescence, 48 h; series mostly up to 45.8 µM
Records with an inconclusive call do not appear. Active and inactive are the calls of the source. The call rests on the fitted dose curve; in most records, active means well fitted cell-killing curve with a large enough effect; inconclusive means small, poorly fitted or top-dose-only effect, or effect the other way; inactive means no such curve, though single readings can be large or run the other way.
Lab note: assign the record to one of True (active), False (inactive)

*Q* Tell me the recorded outcome of this test for C[C@@H]1CCO[C@H]2Cn3cc(C(=O)NCc4ccc(F)cc4F)c(=O)c(O)c3C(=O)N12 .
*A* True

*Q* Assay outcome for CN(C)CC[C@H](CSc1ccccc1)Nc1ccc(S(=O)(=O)NC(=O)c2ccc(N3CCN(Cc4ccccc4-c4ccc(Cl)cc4)CC3)cc2)cc1[N+](=O)[O-] : what was it?
*A* True

*Q* How did this test come out for CN[C@H]1[C@@H](O[C@@H]2[C@H](O[C@@H]3[C@@H](O)[C@@H](O)[C@@H](N=C(N)N)[C@@H](O)[C@@H]3N=C(N)N)O[C@H](C)[C@@]2(O)C=O)O[C@@H](CO)[C@@H](O)[C@H]1O ?
*A* False

*Q* GET /call?item= NC(=O)c1nnn(Cc2cc(Cl)c(C(=O)c3ccc(Cl)cc3)c(Cl)c2)c1N returns the recorded outcome of this test.
*A* True

*Q* State the result this test recorded for CCCCC[C@H](O)C=C[C@H]1[C@H](O)CC(=O)[C@H]1CC=CCCCC(=O)O .
*A* True

*Q* Could you check what this test reported for CNc1nc(-c2ccc3c(N)n[nH]c3c2)cc(N2C[C@@H](C(=O)NC3CCCCC3)CC[C@@H]2C)n1 ?
*A* True

*Q* // param item: CCN1C[C@H](C)n2c(c(O)c3c(=O)n(Cc4ccc(F)c(Cl)c4)nc(C(=O)NC)c32)C1=O ; yields the recorded call
*A* False

*Q* Could you check what this test reported for CN1c2ccccc2C(=O)N2CCc3c([nH]c4ccccc34)C21 (centres undefined) ?
*A* True

*Q* Could you check what this test reported for CC1C(=O)OC2C(O)C34C5CC(C(C)(C)C)C36C(OC(=O)C6O)OC4(C(=O)O5)C12O (centres undefined) ?
*A* True

*Q* Please share the test call associated with N#CC(c1ccc(Cl)cc1)c1c(Cl)cc(-n2ncc(=O)[nH]c2=O)cc1Cl (centres undefined) .
*A* True

*Q* Recorded test outcome, item Cc1cc(C(C)Nc2ccccc2)c2nc(N3CCOCC3)cc(=O)n2c1 (centres undefined)
*A* True

*Q* Give the logged outcome of this assay for the following compound: CC1=C(CC(=O)O)c2cc(F)ccc2C1=Cc1ccc(S(C)=O)cc1 (centres undefined)
*A* True

*Q* What classification did Cc1ccc2c(=O)c3cccc(CC(=O)O)c3oc2c1C end up with in this test?
*A* True

*Q* What did the test return for O=C(O)c1ccc(O)c2ncc(N3CCOCC3)cc12 ?
*A* True

*Q* Hello, I am checking results. What call was entered for CN1CC(=O)NC1=NC(=O)Nc1cccc(Cl)c1 ?
*A* True

*Q* Answer briefly: the call reported for O=C(Nc1cccc(C(F)(F)F)c1)Nc1cc(S(=O)(=O)NC2CC2)ccc1-c1ccsc1 in this assay.
*A* True

*Q* Returns: the outcome recorded for CCC(=C(c1ccc(O)cc1)c1ccc(OCCNC)cc1)c1ccccc1 in this assay.
*A* True

*Q* Recorded test call requested for O=C(Nc1cccc2c(=O)cc(-c3nn[nH]n3)oc12)c1ccc(OCCCCc2ccccc2)cc1
*A* True

*Q* What did the test return for CN(C)CCN(Cc1ccc(Cl)cc1)c1ccccn1 ?
*A* True

*Q* Kindly provide the recorded test outcome for the following compound: COc1ccc(-c2nc3ccc(C4=NNC(=O)CC4C)cc3[nH]2)cc1 (centres undefined)
*A* True

*Q* For this compound, state the assay outcome: COc1ccc(Cn2ccc3ccc(C(=O)NO)cc32)cc1
*A* True

*Q* Please share the test call associated with COc1cc([C@H]2Oc3cc([C@H]4Oc5cc(O)cc(O)c5C(=O)[C@H]4O)ccc3O[C@H]2CO)ccc1O .
*A* True

*Q* In this assay, the call recorded for O=C1CCCC(=O)C1C(=O)c1ccc(C(F)(F)F)cc1[N+](=O)[O-] was what?
*A* True

*Q* // return assay outcome for C[C@@H]1[C@H](O)[C@@H](C)C=CC=CC=CC=CC=CC=CC=C[C@H](O[C@@H]2O[C@H](C)[C@H](O)[C@H](N)[C@@H]2O)C[C@@H]2O[C@](O)(C[C@@H](O)C[C@@H](O)[C@H](O)CC[C@@H](O)C[C@@H](O)CC(=O)O[C@H]1C)C[C@H](O)[C@@H]2C(=O)O
*A* True

*Q* Give the logged outcome of this assay for the following compound: O=C(c1ccc(C=Cc2n[nH]c3ccccc23)cc1)N1CCNCC1
*A* True

*Q* State the result this test recorded for CC1CNc2c(cccc2S(=O)(=O)N[C@@H](CCCN=C(N)N)C(=O)N2CC[C@@H](C)C[C@@H]2C(=O)O)C1 (some centres undefined) .
*A* True

*Q* Dear colleague, could you share the recorded outcome for CC[C@H](C=C[C@@H](C)[C@H]1CC[C@H]2[C@@H]3CC=C4C[C@@H](O)CC[C@]4(C)[C@@H]3CC[C@]12C)C(C)C when you have a moment?
*A* False

*Q* Look up the recorded call for N=C1SC(=Cc2ccc(-c3ccc4c(c3)C(=O)NC4=O)o2)C(=O)N1c1ccc(Br)cc1 in this test.
*A* True

*Q* I'd appreciate the recorded outcome for Nc1ncnc2c1c(-c1cccc(OCc3ccccc3)c1)cn2C1CC(CN2CCC2)C1 (centres undefined) from this test.
*A* True

*Q* Would you mind telling me which call this test gave N#CC(=C1Nc2ccccc2S1)c1ccnc(OCc2ccc(CN3CCOCC3)cc2)n1 ?
*A* True

*Q* Please share the test call associated with CC[C@H](NC(=O)[C@H](C)NC)C(=O)N1C[C@@H](O)C[C@H]1Cc1c(-c2[nH]c3cc(F)ccc3c2C[C@H]2C[C@H](O)CN2C(=O)[C@H](CC)NC(=O)[C@H](C)NC)[nH]c2cc(F)ccc12 .
*A* True

*Q* Record lookup: outcome of this test for Cc1ccccc1-n1c(Cn2nc(-c3cccc(O)c3)c3c(N)ncnc32)nc2cccc(C)c2c1=O ?
*A* True

*Q* Could you kindly confirm the outcome this assay logged for Cc1cc2nc3c(=O)[nH]c(=O)nc-3n(CC(O)C(O)C(O)CO)c2cc1C (centres undefined) ?
*A* False

*Q* What is the recorded call for this compound in the test? NC1(C(=O)N[C@@H](CCO)c2ccc(Cl)cc2)CCN(c2ncnc3[nH]ccc23)CC1
*A* True
